B1: CPEB3 Ribozyme (parent)
chain: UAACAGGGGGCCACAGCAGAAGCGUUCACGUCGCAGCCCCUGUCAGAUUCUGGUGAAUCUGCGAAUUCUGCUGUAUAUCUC

Variants of: B1
ASSAY: self-cleavage, relative activity (ratio to wild type); higher = more cleavage; in vitro, sequencing
As shown below, each of these variants has a reported self-cleavage value.

>  <MUTATION_NAME>
U49A U69G

>  <self-cleavage>
0.61

$$$$
>  <MUTATION_NAME>
A20U U54A

>  <self-cleavage>
0.29

$$$$
>  <MUTATION_NAME>
C27U U41G

>  <self-cleavage>
0.11

$$$$
>  <MUTATION_NAME>
A28U G53U

>  <self-cleavage>
1

$$$$
>  <MUTATION_NAME>
A2U C12G

>  <self-cleavage>
0.19

$$$$
>  <MUTATION_NAME>
A20U A57G

>  <self-cleavage>
0.23

$$$$
>  <MUTATION_NAME>
A21G U76G

>  <self-cleavage>
0.66

$$$$
>  <MUTATION_NAME>
A5U C62U

>  <self-cleavage>
0.22

$$$$
>  <MUTATION_NAME>
G7U U43A

>  <self-cleavage>
0.09

$$$$
>  <MUTATION_NAME>
G70U U80A

>  <self-cleavage>
0.67

$$$$
>  <MUTATION_NAME>
A15G C37A

>  <self-cleavage>
0.11

$$$$
>  <MUTATION_NAME>
A64G A75C

>  <self-cleavage>
1.06

$$$$
>  <MUTATION_NAME>
A18G U43C

>  <self-cleavage>
0.35

$$$$
>  <MUTATION_NAME>
G36A U72A

>  <self-cleavage>
0.26

$$$$
>  <MUTATION_NAME>
A75U U78C

>  <self-cleavage>
1.15

$$$$
>  <MUTATION_NAME>
U43A U78G

>  <self-cleavage>
1.29

$$$$
>  <MUTATION_NAME>
C38A U49A

>  <self-cleavage>
0.27

$$$$
>  <MUTATION_NAME>
G6U U80C

>  <self-cleavage>
0.09

$$$$
>  <MUTATION_NAME>
C14U U67C

>  <self-cleavage>
0.23

$$$$
>  <MUTATION_NAME>
G30A U31A

>  <self-cleavage>
0.32

$$$$
>  <MUTATION_NAME>
G9U U66C

>  <self-cleavage>
0.15

$$$$
>  <MUTATION_NAME>
A20C A47G

>  <self-cleavage>
0.45

$$$$
